Values from paper PMC11006503

system: HeLa; assay: MTT cell proliferation assay; type: cell-based, human; conditions: Homo sapiens, HeLa, 24 h, MTT, mean ± SEM
VALUE_TYPE: IC50
Could you kindly put the unit after your number?

Q: // lookup IC50 | system=HeLa | key= CC(=N\NC(=O)c1ccncc1)/C(C)=N/NC(N)=S
Ans: 1.06 µM
